- System: SF-268 CNS
- Assay method text: NCI tumour cell line growth inhibition, 48 h
Quantity: TGI

Use the examples below as a reference point.
Which TGI is listed for CCN(Cc1cc(Cl)cc(C)c1O)Cc1c(O)ccc2ccccc12 ?
34.8 µM

Which TGI is listed for COC(=O)c1csc(-c2csc(CCNC(=O)OC(C)(C)C)n2)n1 ?
> 100 µM

Which TGI is listed for COc1ccc(-n2cc(-c3cc(OC)c(OC)c(OC)c3)nc2SCc2cccc(C#N)c2)cc1OC ?
> 100 µM

Which TGI is listed for O=[N+]([O-])c1ccc(C[P+]2(c3ccccc3)CCCCC2)cc1 (tested in a mixture with another compound) ?
> 100 µM

Which TGI is listed for CC(C#N)(NO)C(C)(C#N)NO (stereo not given) ?
> 100 µM

Others:
Which TGI is listed for Cc1nc2ccccc2c(=O)n1/N=C(\N=Nc1ccc(Cl)cc1)c1cccc(-c2ccco2)c1 ?
> 100 µM

Which TGI is listed for Nc1[nH]nc(Nc2ccccc2)c1-c1nc2ccccc2s1 ?
8.83 µM

Which TGI is listed for N#CN1CC[C@@H]2CC3(CCC2C1)OCCO3 (stereo not given in full) ?
> 100 µM

Which TGI is listed for O=C1OC(C(O)CO)C(C(O)CO)OC1=O (stereo not given) ?
> 10 µM

Which TGI is listed for COc1ccc(N2C(=O)C3ON(Cc4ccc(CC(N)=O)cc4)C(c4c5ccccc5c(C)c5ccccc45)C3C2=O)cc1 (stereo not given) ?
> 100 µM

====

// reported TGI per item
- Test system: SF-295 CNS
- Assay method text: NCI tumour cell line growth inhibition, 48 h

Use the examples below as a reference point.
Which TGI is listed for O=C(COc1cc(=O)oc2ccccc12)c1ccccc1 ?
87.4 µM

Which TGI is listed for NCCCn1c(Cl)nc2ccccc21 ?
> 100 µM

Which TGI is listed for O=C(CCN1CCCC1)Nc1ccc2c(Nc3ccc(F)cc3)c3ccccc3nc2c1 ?
2.32 µM

Which TGI is listed for CCCC(=O)OCC1OC(n2cc(F)c(=O)[nH]c2=O)CC1OC(=O)CCC (stereo unspecified) ?
> 10 µM

Others:
Which TGI is listed for C(=N\NC1=NCCCCN1)/c1ccc2ccccc2c1 ?
46.3 µM

====

// reported TGI per item
- System: RPMI-8226 leukemia
- Assay method text: NCI tumour cell line growth inhibition, 48 h
Give just the number in µM; leave the unit off.

Use the examples below as a reference point.
Which TGI is listed for CN1CCN(C2=C(Cl)C(=O)c3ccccc3C2=O)CC1 ?
9.61

Which TGI is listed for CCN1C(=O)N(CC)C2C1NN=c1s/c(=C3\C(=O)Nc4ccccc43)c(=O)n12 (stereo not given) ?
6.06

Which TGI is listed for CCOC(=O)/C(C(N)=O)=C(\O)C(=O)/C=C(\O)c1ccc(Cl)cc1 ?
44.8

// switching to the query compound
Which TGI is listed for O=C1c2c(c3c4cc(F)ccc4oc3c3[nH]c4ccccc4c23)C(=O)N1O ?
7.31

====

// reported TGI per item
- Test system: SNB-75 CNS
- Assay method text: NCI tumour cell line growth inhibition, 48 h
Give just the number in µM; leave the unit off.

Which TGI is listed for CC(C)(C)c1cc(C2c3cc4c(cc3OC(O)(CO)C2C(=O)O)OCO4)cc(C(C)(C)C)c1O (stereo not given) (tested in a mixture with another compound) ?
22.8

// switching to the query compound
Which TGI is listed for N=c1oc2ccc3ccccc3c2cc1-c1nc2ccccc2c(=O)[nH]1 ?
19.6

====

- Test system: UO-31 renal
- Assay method text: NCI tumour cell line growth inhibition, 48 h
Quantity: TGI

Which TGI is listed for COC(=O)NC1(NC(=O)OC)NC(=O)c2ccccc2N1 ?
> 100 µM

Which TGI is listed for ClCCCN1CCN(CCCl)CC1 ?
493 µM

Which TGI is listed for COc1ccc2c(=O)c(-c3cc(OC)c(OC)cc3OC)coc2c1 ?
> 100 µM

Others:
Which TGI is listed for O=C(O)CCCN1C(=O)/C(=C/C(Cl)=C/c2ccccc2)SC1=S ?
2.48 µM

Which TGI is listed for COc1ccc(C2=Nn3c(nnc3-c3ccc(F)c(Cl)c3)SC2)cc1 ?
> 100 µM

Which TGI is listed for O=C1C=C(NCCc2ccc(O)c([N+](=O)[O-])c2)C(=O)c2[nH]cnc21 ?
> 100 µM

====

- Test system: SK-MEL-5 melanoma
- Assay method text: NCI tumour cell line growth inhibition, 48 h
Quantity: TGI

Use the examples below as a reference point.
Which TGI is listed for CCOC(=O)c1ccc(N=Cc2ccc(N(CCC#N)S(=O)(=O)c3ccccc3)cc2C)cc1 ?
> 100 µM

Which TGI is listed for N=C1OC(CN2CCN(c3ccccc3)CC2)CN1C(=O)Nc1ccccc1 (centres undefined) ?
> 100 µM

Which TGI is listed for N=c1oc2ccc3ccccc3c2cc1-c1nc2ccccc2c(=O)[nH]1 ?
> 100 µM

Which TGI is listed for COc1ccc(-n2cc(-c3cc(OC)c(OC)c(OC)c3)nc2SCc2cccc(C#N)c2)cc1OC ?
> 100 µM

Others:
Which TGI is listed for COc1ccc(CCN2CCCn3c2nc2ccccc2c3=O)cc1 ?
4.44 µM

Which TGI is listed for CN(C)CCNC(=O)c1cccc2c1C(=O)c1ccccc1C2=O ?
40.2 µM

Which TGI is listed for Cc1nc2c(Cl)cc(Cl)cc2c2c1CCO2 ?
> 100 µM

====

- Test system: MDA-N
- Assay method text: NCI tumour cell line growth inhibition, 48 h
Would you please tag the item true when its TGI is 30 µM or above, and false when it is below?

Reported TGI at or above 30 µM? CC(C)(C)OC(=O)NC(CSCc1ccc(C(=O)c2ccccc2)cc1)C(=O)N1CCN(CCCCN2c3ccccc3Sc3cc(N=[N+]=[N-])ccc32)CC1 (centres undefined)
true

Reported TGI at or above 30 µM? O=S(=O)(F)Cc1ccccc1
true

Reported TGI at or above 30 µM? Cc1[nH]c(=O)nc(N/N=C/c2c3ccccc3c(Cl)c3ccccc23)c1C(=O)Nc1ccc(Cl)cc1
true

Reported TGI at or above 30 µM? COc1cc(/C=C2\C(=O)N(c3cccc(NC(C)=O)c3)C(c3ccccc3)S2(=O)=O)cc(OC)c1OC (centres undefined)
true

Reported TGI at or above 30 µM? COc1ccc(C2=C(OC(C)=O)c3cccn3-c3ccc(Cl)cc3S2)cc1
false

Reported TGI at or above 30 µM? CC(=O)C1=C(C)N(c2ccccc2)C2(O)C3=C(C(=O)c4ccccc4C3=O)C(O)=CC12Cl (centres undefined)
false

Reported TGI at or above 30 µM? CC1=C(C)C(=O)OC(C(C)(O)C2(O)CC3OC34C3CC(O)C56OC5C=CC(=O)C6(C)C3CCC42C)C1 (centres undefined)
false

Reported TGI at or above 30 µM? O=C(c1ccc(Cl)cc1Cl)N1CCN(C(=O)c2ccc(Cl)cc2Cl)C1=S
true

Reported TGI at or above 30 µM? O=c1cc(NNc2ccccc2)[nH]c(=O)[nH]1
true

Reported TGI at or above 30 µM? CN1C/C(=C\c2cccs2)C2=NN(c3ccccc3)C(c3cccs3)C2C1 (centres undefined)
false

Reported TGI at or above 30 µM? COP(=O)(OC)C(N)Cc1c[nH]c2ccccc12 (centres undefined)
true

Reported TGI at or above 30 µM? O=C1c2ccccc2C(=O)N1c1ccc(Cc2ccc(N3C(=O)c4ccccc4C3=O)cc2)cc1
true

Reported TGI at or above 30 µM? NC(CSC(c1ccccc1)(c1ccccc1)c1ccccc1)C(=O)O (centres undefined)
false

Reported TGI at or above 30 µM? CCC(C)C(Nc1c2ccccc2nc2c(C(=O)NCCN(C)C)cccc12)C(=O)O (centres undefined)
true

Reported TGI at or above 30 µM? O=CNC(Cc1cnc[nH]1)C(=O)O (centres undefined)
true

Reported TGI at or above 30 µM? COc1ccc2c(=O)c(-c3cc(OC)c(OC)cc3OC)coc2c1
true

Reported TGI at or above 30 µM? O=C(Cn1c2ccc(Br)cc2c2nc3ccccc3nc21)NCc1ccccc1
true

====

- Tested on: NCI/ADR-RES ovarian
- Assay method text: NCI tumour cell line growth inhibition, 48 h
Quantity: TGI

Use the examples below as a reference point.
What measured TGI is associated with CN(c1cccc(C(=O)O)c1)c1cc(O/N=[N+](\[O-])N(C)C)c([N+](=O)[O-])cc1[N+](=O)[O-] on NCI/ADR-RES ovarian?
> 100 µM

What measured TGI is associated with CC(C)(C)OC(=O)NC(CSCc1ccc(C(=O)c2ccccc2)cc1)C(=O)N1CCN(CCCCN2c3ccccc3Sc3cc(N=[N+]=[N-])ccc32)CC1 (stereo unspecified) on NCI/ADR-RES ovarian?
> 100 µM

What measured TGI is associated with COc1ccc(/C=C\c2cc(OC)c(OC)c(OC)c2)cc1NC(=O)/C=C/c1ccc(OC)c(OC)c1 on NCI/ADR-RES ovarian?
> 100 µM

What measured TGI is associated with O=C(CSSCC(=O)c1ccc(Cl)cc1)c1ccc(Cl)cc1 on NCI/ADR-RES ovarian?
13.1 µM

What measured TGI is associated with O=C1/C(=C/c2ccc(F)cc2)COc2ccc(O)c(O)c21 on NCI/ADR-RES ovarian?
7.85 µM

What measured TGI is associated with OCc1c(-c2cccs2)oc(-c2cccs2)c1CO on NCI/ADR-RES ovarian?
> 100 µM

What measured TGI is associated with Cc1cn(S(=O)(=O)c2ccccc2)c2c(OCc3ccccc3)cc([N+](=O)[O-])cc12 on NCI/ADR-RES ovarian?
> 100 µM

What measured TGI is associated with Cc1[nH]n(-c2nc(-c3ccccc3)cc(=O)[nH]2)c(=O)c1CCO on NCI/ADR-RES ovarian?
> 100 µM

Others:
What measured TGI is associated with CCC1(O)C(=O)OCc2c1cc1n(c2=O)Cc2cc3cc4c(cc3nc2-1)OCO4 (stereo unspecified) on NCI/ADR-RES ovarian?
0.0277 µM

What measured TGI is associated with CN1C/C(=C\c2cccs2)C2=NN(c3ccccc3)C(c3cccs3)C2C1 (stereo unspecified) on NCI/ADR-RES ovarian?
> 100 µM

What measured TGI is associated with CN(C)CCNC(=O)c1ccc2c(c1)oc1cc3ccccc3c(=O)n12 on NCI/ADR-RES ovarian?
34.5 µM
